src = patent US20110118131A1

Target: T1, IL-1beta (UniProt P01584 117-269)
T1 construct: also called IL-1β
Test: Biacore
METRIC: binding result

BINDER: XPA23 Fab, heavy chain S30H (Fab, V domains shown) VH: EVQLLESGGGLVQPGGSLRLSCAASGFTFHKYFMFWVRQAPGKGLEWVSVISPSGGMTRYADSVKGRFTISRDNSKNTLYLQMNSLRAEDTAVYYCARVGYGGNSDYWGQGTLVTVSS VL: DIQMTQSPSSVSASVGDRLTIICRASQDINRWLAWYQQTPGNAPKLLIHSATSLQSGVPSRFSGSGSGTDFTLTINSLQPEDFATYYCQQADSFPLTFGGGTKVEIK
METRIC: binding result
MEASURED_VALUE: no binding
//
BINDER: XPA23 Fab, heavy chain G103E (Fab, V domains shown) VH: EVQLLESGGGLVQPGGSLRLSCAASGFTFSKYFMFWVRQAPGKGLEWVSVISPSGGMTRYADSVKGRFTISRDNSKNTLYLQMNSLRAEDTAVYYCARVGYGENSDYWGQGTLVTVSS VL: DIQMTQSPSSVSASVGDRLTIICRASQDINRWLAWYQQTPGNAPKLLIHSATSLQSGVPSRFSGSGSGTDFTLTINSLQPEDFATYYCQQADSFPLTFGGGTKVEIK
METRIC: binding result
MEASURED_VALUE: no binding
//
BINDER: XPA23 Fab, heavy chain T58Q (Fab, V domains shown) VH: EVQLLESGGGLVQPGGSLRLSCAASGFTFSKYFMFWVRQAPGKGLEWVSVISPSGGMQRYADSVKGRFTISRDNSKNTLYLQMNSLRAEDTAVYYCARVGYGGNSDYWGQGTLVTVSS VL: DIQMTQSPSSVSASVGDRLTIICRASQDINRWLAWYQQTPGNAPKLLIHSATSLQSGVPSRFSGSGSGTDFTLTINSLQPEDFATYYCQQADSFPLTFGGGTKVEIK
METRIC: binding result
MEASURED_VALUE: no binding
